Test system: CAMK1
Details: concentration: 1 μM, replicates: in singlicate; n = 1;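 further: KINOMEscan kinase panel screen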
quantity: %Inh (%)
Numbers only, in %.

Please review the following examples before continuing.
molecule	quantity	assay value
CCn1cnc2c(NCc3ccccc3)ncnc21	%Inh	0
N#CC1(c2cccc(C(=O)Nc3cccc(Oc4ccc5nc(NC(=O)C6CC6)sc5n4)c3)c2)CC1	%Inh	0
Cc1cccc(Nc2nc(NCCN)ncc2C(N)=O)c1	%Inh	59
COc1ccc(C2=C(Nc3cccc(O)c3)C(=O)NC2=O)cc1	%Inh	23
CCNC(=O)/C=C/c1n[nH]c2cc(Sc3ccccc3C(=O)NC)ccc12	%Inh	7
Cc1nn2c(=O)cc(N3CCO[C@H](C)C3)nc2n1Cc1cccc(Cl)c1Cl	%Inh	0
Cn1cc(-c2ccc3c(c2)CCN3C(=O)Cc2cc(F)cc(F)c2F)c2c(N)ncnc21	%Inh	15
Cc1cccc(Nc2nc(N[C@H]3CCCC[C@H]3N)ncc2C(N)=O)c1.Cl	%Inh	54
Cl.Cl.NCC(NC(=O)c1cc(-c2cccnc2)c(-c2ccnc3[nH]ccc23)s1)c1ccccc1 (stereo not drawn)	%Inh	32
COc1cccc(CC(=O)N2CCc3cc(-c4cn(C)c5ncnc(N)c45)ccc32)c1	%Inh	16

Lab note: each molecule below needs its %Inh filled in.
1. CN(C)CCNS(=O)(=O)c1ccc(-c2ccnc3[nH]ccc23)cc1
2. Cl.N#CCc1ccc(Nc2nccc(Nc3ccc(Oc4ccccc4)cc3)n2)cc1
3. COC(=O)Nc1nc2ccc(Oc3ccc(CC(=O)Nc4cc(C(F)(F)F)ccc4F)cc3)cc2[nH]1
4. Cc1ccc(-c2ccc3occ(-c4ccc(S(C)=O)cc4)c3c2)nn1 (stereo not drawn)

OUT:
1. 50
2. 10
3. 2
4. 0

Respectfully, I request %Inh for each entry included below.
1. Cl.Cl.NC(CNC(=O)c1cc(Br)c(-c2ccnc3[nH]ccc23)s1)c1ccccc1 (stereo not drawn)
2. Cc1ccc(NC(=O)c2ccnc(N3CCCCC3)c2)cc1-c1ccc(C(=O)NCC2CC2)cc1
3. COc1cc(Nc2nccc(N3CCC(NS(=O)(=O)c4ccc(NC(C)=O)cc4)CC3)n2)cc(OC)c1OC
4. CN(c1ccc(F)c(NC(=O)c2cccc(OC(C)(C)C#N)c2Cl)c1)c1ccc2nc(NC(=O)C3CC3)sc2n1

OUT:
[42, 0, 37, 0]

* * *

Exercise: state measured %Inh for each of the compounds provided.
Test system: FES
Details: concentration: 1 μM, replicates: in singlicate; n = 1

# annotated cases, reported %Inh shown
compound	assay value
CCn1cnc2c(NCc3ccccc3)ncnc21 [SKF-96418]	3%
Cn1cc(-c2cnc(N)c3c(-c4ccc5c(c4)CCN5C(=O)Cc4ccccc4)csc23)cn1 [GSK2593074]	14%
CNc1nccc(-c2ccc3c(N)n[nH]c3c2)n1 [GSK2206003]	1%
Cc1ccc(O)cc1Nc1ccnc2cc(-c3ccc(CN4CCCCC4)o3)ccc12 [GW557777]	7%
Cl.Cl.NCC(NC(=O)c1cc(-c2cccnc2)c(-c2ccnc3[nH]ccc23)s1)c1ccccc1 (centres unmarked) [GSK1323434]	44%
Cl.O=C(Nc1ccc(Oc2ccc3[nH]c(NC(=O)c4ccco4)nc3c2)cc1)Nc1cc(C(F)(F)F)ccc1F [GW683134]	0%

Look up %Inh for the entries below, preserving their order.
1. Nc1ncc(-c2ccc3nccc(-c4ccncc4)c3c2)cc1S(=O)(=O)N1CCCCC1 [GSK1693850]
2. CN1CCN(Cc2ccc(NC(=O)Nc3ccc(N(C)c4ccnc(Nc5ccc(CS(C)(=O)=O)cc5)n4)cc3)cc2)CC1.Cl [GW827654]
3. CN(c1ccc2c(c1)nc(NCc1ccccc1)n2C)c1ccnc(Nc2ccc(CS(C)(=O)=O)cc2)n1.Cl [GW811603]
4. COc1ccc(C)c(Nc2ccnc(Nc3ccc(-c4cnc[nH]4)cc3)n2)c1.Cl [GW784041]
5. Cc1cc(-c2c(-c3ccc(F)cc3)ncn2CCCN2CCOCC2)nc(N)n1 [SB-222517]
6. O=C1NC(=O)C(c2ccccc2Cl)=C1Nc1cccc(Cl)c1 [SB-342409]
7. CN(C)CCNS(=O)(=O)c1ccc(-c2ccnc3[nH]ccc23)cc1 [GSK977620]
8. Cn1cc(-c2ccc3c(c2)CCN3C(=O)Cc2cc(F)cc(F)c2F)c2c(N)ncnc21 [GSK2634140]

OUT:
1: 0%; 2: 21%; 3: 0%; 4: 2%; 5: 35%; 6: 0%; 7: 0%; 8: 0%

List reported %Inh for each of these compounds:
1. N#Cc1cnc2cc(-c3cnc(CNCCN4CCOCC4)s3)ccc2c1Nc1ccc(Oc2ccccc2)cc1 [GW664114]
2. Nc1ncc(-c2cn[nH]c2)c2scc(-c3ccc4c(c3)CCN4C(=O)Cc3ccccc3)c12 [GSK2593067]

OUT:
["94.9%", "0%"]

* * *

Test system: MEK3
Construct: gene MAP2K3
Conditions: concentration: 1 μM, replicates: in singlicate; n = 1
Mark t only when %Inh stays strictly below 1%. Values equal to the cut-off are f.

Example entries and their recorded answers appear below.
compound	class assignment
CN(c1ccc(NC(=O)N2CCN(CCCN3CCOCC3)CC2)cc1)c1ccnc(Nc2ccc(CS(C)(=O)=O)cc2)n1.Cl	t
O=C(O)C(F)(F)F.O=c1[nH]ccc2nc(N[C@@H]3CCNC3)nc(Nc3ccc4c(c3)S(=O)(=O)CC4)c12	f
CN(C)CCNS(=O)(=O)c1ccc(-c2ccnc3[nH]ccc23)cc1	f

IN: Here's an entry: COc1ccc(C2=C(Nc3cccc(O)c3)C(=O)NC2=O)cc1 . Is its %Inh below 1%?
OUT: t

IN: Dear colleague, could you confirm whether %Inh of Cn1cc(-c2cnc(N)c3c(-c4ccc5c(c4)CCN5C(=O)Cc4ccccc4)csc23)cn1 falls below 1%? Thanks.
OUT: f

IN: # check: %Inh < 1% for CC(=O)Nc1cn2nc(Oc3cccc(NC(=O)c4cccc(C(F)(F)F)c4)c3)ccc2n1
OUT: t

IN: Record CN(c1ccc(NC(=O)Nc2cccc(Cl)c2)cc1)c1ccnc(N)n1.Cl : is its %Inh strictly below 1%?
OUT: t

IN: Lab log: compare recorded %Inh with 1%; is it strictly lower for CC(C)(C)c1ccc(C(=O)Nc2cn3cc(-n4ccnc4)ccc3n2)cc1 ?
OUT: t

IN: Find out if reported %Inh for Cc1cc(-c2c(-c3ccc(F)cc3)ncn2CCCN2CCOCC2)nc(N)n1 is less than 1%
OUT: f

IN: %Inh strictly < 1% for this compound? Cl.Cl.NC(CNC(=O)c1cc(Br)c(-c2ccnc3[nH]ccc23)s1)c1ccccc1 (centres unmarked)
OUT: f

IN: Decide: %Inh of COC(=O)Nc1nc2ccc(Oc3ccc(NC(=O)Nc4cc(C(F)(F)F)ccc4F)cc3)cc2[nH]1.Cl strictly below 1%?
OUT: t

IN: Here's an entry: CNc1nccc(-c2ccc3c(N)n[nH]c3c2)n1 . Is its %Inh below 1%?
OUT: f

IN: Identify whether the compound CN1CCN(Cc2ccc(NC(=O)Nc3ccc(N(C)c4ccnc(Nc5ccc(CS(C)(=O)=O)cc5)n4)cc3)cc2)CC1.Cl records %Inh below 1%.
OUT: f

IN: Take the compound CCOc1nccc(-c2c(-c3ccc(F)cc3)ncn2C2CCNCC2)n1 and say whether its %Inh is less than 1%.
OUT: f

IN: Bench note: check whether COc1cccc(C2=C(Nc3cccc(O)c3)C(=O)NC2=O)c1 shows %Inh below 1%
OUT: t

IN: For c1ccc(Oc2ccc(Nc3ccnc4cc(-c5ccc(CN6CCCCC6)o5)ccc34)cc2)nc1 , is the recorded %Inh below the cut-off of 1%?
OUT: t

* * *

System: CDK7
Settings: concentration: 1 μM, replicates: in singlicate; n = 1
Field: %Inh. Provide a value for each of the molecules that follow.
Hi, when you answer, please include the unit after the number. Thanks!

# count of solved cases: 4
smiles notation	%Inh
CNc1nccc(-c2ccc3c(N)n[nH]c3c2)n1	23%
Cc1ccc(O)cc1Nc1ccnc2ccc(C(C)(C)C)cc12	42%
COC(=O)Nc1nc2ccc(Oc3ccc(CC(=O)Nc4cc(C(F)(F)F)ccc4F)cc3)cc2[nH]1	0%
CSc1ccc(NC2=C(c3ccc(Cl)cc3)C(=O)NC2=O)cc1	36%

Here are 6 molecules. What values of %Inh were reported for them?
1. Nc1ncc(-c2ccc3nccc(-c4ccncc4)c3c2)cc1S(=O)(=O)N1CCCCC1
2. CS(=O)(=O)c1cccc(CNc2nc(Nc3ccc4c(c3)CCC(=O)N4)ncc2C(F)(F)F)c1
3. Nc1ncnc2scc(-c3ccc(NC(=O)Cc4cc(F)ccc4F)cc3)c12.O=C(O)C(F)(F)F
4. c1ccc(Oc2ccc(Nc3ccnc4cc(-c5ccc(CN6CCCCC6)o5)ccc34)cc2)nc1
5. CN(c1ccc(NC(=O)Nc2cccc(Cl)c2)cc1)c1ccnc(N)n1.Cl
6. Cc1cccc(Nc2nc(N[C@H]3CCCC[C@H]3N)ncc2C(N)=O)c1.Cl

OUT:
1. 80%
2. 80%
3. 0%
4. 45%
5. 24%
6. 48%

Respectfully, I request %Inh for each entry included below.
1. Cc1ccc(O)cc1Nc1ccnc2cc(-c3ccc(CN4CCCCC4)o3)ccc12
2. O=C1NC(=O)C(c2ccccc2Cl)=C1Nc1cccc(Cl)c1

OUT:
1: 0%; 2: 42%
